biological target: Aβ40 (Homo sapiens, UniProt P05067); assay: kinetic ThT assay for Aβ aggregation; type: biochemical; conditions: compound 10 μM; DMSO control at 80 hr = 0% inhibition; parenthesis = compound 1027; read-out: % inhib Aβ 40 10 μM
Sequence (P05067 672-711 limits assumed, species assumed): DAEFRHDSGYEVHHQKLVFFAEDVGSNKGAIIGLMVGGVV
readout name: inhibition at 10 µM (%)

[
  {
    "compound": "CN(Cc1ccc(F)cc1)c1cc(-c2cccc(C3(O)COC3)c2)cc2nonc12",
    "target under test": "Aβ40 (Homo sapiens, UniProt P05067)",
    "unit text": "%",
    "inhibition at 10 µM": 50
  }
]

1. OC(c1cccc(-c2cc(N3CC(N4CCOCC4)C3)c3nonc3c2)c1)C(F)(F)F (stereo not shown)
2. CC(O)c1cccc(-c2cc(N(C)Cc3ccccc3)c3nonc3c2)c1 (stereo not shown)
Just curious, which one has the larger inhibition at 10 µM reading, 1 or 2 ? Respond using the label that marks the chosen record.
2

###

Molecular target: Aβ40 (Homo sapiens)
Assay: kinetic ThT assay for Aβ aggregation
Format: biochemical
Conditions: compound 10 μM; DMSO control at 80 hr = 0% inhibition; parenthesis = compound 1027; read-out: % inhib Aβ 40 10 μM
Method: Aβ40 (1.0 mg) was pre-treated in a 1.5 mL microfuge tube with HFIP (1 mL) and sonicated for 20 min to disassemble any pre-formed Aβ aggregates. The HFIP was removed with a stream of argon and the Aβ dissolved in Tris base (5.8 mL, 20 mM, pH˜10). […] The kinetic ThT assay for AP aggregation is similar to that of Chalifour et al (Chalifour et al, 2003, J. Biol. Chem. 278:34874-81). […] Plates were covered with clear polystyrene lids and incubated at 37° C. in a Tecan Genios microplate reader. […]
readout name: inhibition at 10 µM (%)

// solved cases for inhibition at 10 µM follow
[
  {
    "compound": "CC(O)c1cccc(-c2cc(N3CCCC3)c3nonc3c2)c1 (stereo not drawn)",
    "target under test": "Aβ40 (Homo sapiens)",
    "inhibition at 10 µM, %": 81.5
  },
  {
    "compound": "CCOC1CN(c2cc(-c3cccc(C(O)C(F)(F)F)c3)cc3nonc23)C1 (stereo not drawn)",
    "target under test": "Aβ40 (Homo sapiens)",
    "inhibition at 10 µM, %": 50
  },
  {
    "compound": "OCC1CN(c2cc(-c3cccc(C(O)C(F)(F)F)c3)cc3nonc23)C1 (stereo not drawn)",
    "target under test": "Aβ40 (Homo sapiens)",
    "inhibition at 10 µM, %": 78
  },
  {
    "compound": "O=C(c1cccc(-c2cc(N3CCC3)c3nonc3c2)c1)N1CCNCC1",
    "target under test": "Aβ40 (Homo sapiens)",
    "inhibition at 10 µM, %": 60
  },
  {
    "compound": "OC(c1cccc(-c2cc(N3CCOCC3)c3nonc3c2)c1)C(F)(F)F (stereo not drawn)",
    "target under test": "Aβ40 (Homo sapiens)",
    "inhibition at 10 µM, %": 58.9
  },
  {
    "compound": "CC(O)/C=C/c1cc(N(C)Cc2ccc(F)cc2)c2nonc2c1 (stereo not drawn)",
    "target under test": "Aβ40 (Homo sapiens)",
    "inhibition at 10 µM, %": 41
  }
]

a. OC(c1cccc(-c2cc(N3CCC3)c3nonc3c2)c1)C(F)(F)F (stereo not drawn)
b. CC(O)C1CN(c2cc(-c3cccc(C(O)C(F)(F)F)c3)cc3nonc23)C1 (stereo not drawn)
Just curious, which one has the larger inhibition at 10 µM reading, a or b ? Respond using the label that marks the chosen record.
b
(b: 73%, a: 51%)

a. O=C(NC1CC1)c1cccc(-c2cc(N3CCC3)c3nonc3c2)c1
b. CC(=O)c1cccc(-c2cc(N3CCCC3)c3nonc3c2)c1
Smaller inhibition at 10 µM value? Options are a and b Respond using the label that marks the chosen record.
b

###

molecular target: Aβ40 (Homo sapiens, UniProt P05067); assay: kinetic ThT assay for Aβ aggregation; conditions: ThT fluorescence, 20 μM Aβ, 37° C., up to 80 hr; parenthesis = compound 1027 in same experiment; read-out: IC50 A β 1-40
readout name: IC50 (nM)

[
  {
    "molecule": "CN1CCN(c2cc(-c3cccc(C(O)C(F)(F)F)c3)cc3nonc23)CC1 (centres unmarked) [TRV-1376]",
    "readout name": "IC50",
    "obs value": 51700
  },
  {
    "molecule": "OC(c1ccc(-c2cc(N3CCCC3)c3nonc3c2)s1)C(F)(F)F (centres unmarked) [TRV-1364]",
    "readout name": "IC50",
    "obs value": 1000
  },
  {
    "molecule": "OC(c1ccc(-c2cc(N3CCCC3)c3nonc3c2)cc1)C(F)(F)F (centres unmarked) [TRV-1365]",
    "readout name": "IC50",
    "obs value": 920
  },
  {
    "molecule": "CC1CCCN1c1cc(-c2cccc(C(O)C(F)(F)F)c2)cc2nonc12 (mixture of isomers) [TRV-1379]",
    "readout name": "IC50",
    "obs value": 1650
  },
  {
    "molecule": "OC(c1ccccc1-c1cc(N2CCCC2)c2nonc2c1)C(F)(F)F (centres unmarked) [TRV-1366]",
    "readout name": "IC50",
    "obs value": 3030
  },
  {
    "molecule": "CC(C)N(C)c1cc(-c2cccc(C(O)C(F)(F)F)c2)cc2nonc12 (centres unmarked) [TRV-1377]",
    "readout name": "IC50",
    "obs value": 1860
  }
]

a. CN(Cc1ccccc1)c1cc(-c2cccc(C(O)C(F)(F)F)c2)cc2nonc12 (centres unmarked) [TRV-1378]
b. OC(c1cccc(-c2cc(N3CCC(N4CCCC4)CC3)c3nonc3c2)c1)C(F)(F)F (centres unmarked) [TRV-1387]
Just curious, which one has the larger IC50 reading, a or b ? Respond using the label that marks the chosen record.
b

###

target: Aβ40 (Homo sapiens, UniProt P05067); experiment: kinetic ThT assay for Aβ aggregation; format: biochemical; conditions: compound 10 μM; DMSO control at 80 hr = 0% inhibition; parenthesis = compound 1027; read-out: % inhib Aβ 40 10 μM
readout name: inhibition at 10 µM (%)

// solved cases for inhibition at 10 µM follow
[
  {
    "compound": "OC[C@@H]1CCCN1c1cc(-c2cccc(C(O)C(F)(F)F)c2)cc2nonc12 (some centres unmarked)",
    "target under test": "Aβ40 (Homo sapiens, UniProt P05067)",
    "obs value": 79
  },
  {
    "compound": "CC(O)c1cccc(-c2cc(NCc3ccccc3)c3nonc3c2)c1 (centres unmarked)",
    "target under test": "Aβ40 (Homo sapiens, UniProt P05067)",
    "obs value": 66.3
  },
  {
    "compound": "OC(c1cccc(-c2cc(N3CCCC3)c3nonc3c2)c1)C(F)(F)F (centres unmarked)",
    "target under test": "Aβ40 (Homo sapiens, UniProt P05067)",
    "obs value": 88.9
  },
  {
    "compound": "COC(C)C1CN(c2cc(-c3cccc(C(O)C(F)(F)F)c3)cc3nonc23)C1 (centres unmarked)",
    "target under test": "Aβ40 (Homo sapiens, UniProt P05067)",
    "obs value": 71.7
  }
]

P. CC(O)c1cccc(-c2cc(N3CCC[C@H]3CO)c3nonc3c2)c1 (some centres unmarked)
Q. CN(Cc1ccc(F)cc1)c1cc(-c2cccc(C(=O)N3CCCC3)c2)cc2nonc12
Smaller inhibition at 10 µM value? Options are P and Q Respond using the label that marks the chosen record.
Q

###

target: Aβ40 (Homo sapiens); assay: kinetic ThT assay for Aβ aggregation; assay type: biochemical; settings: compound 10 μM; DMSO control at 80 hr = 0% inhibition; parenthesis = compound 1027; read-out: % inhib Aβ 40 10 μM
readout name: inhibition at 10 µM (%)

A. CC(C)(O)C1CN(c2cc(-c3cccc(C(O)C(F)(F)F)c3)cc3nonc23)C1 (stereo not shown) [TRV-1435]
B. O=C(c1cccc(-c2cc(N3CCC3)c3nonc3c2)c1)N1CCOCC1 [TRV-1442]
Just curious, which one has the larger inhibition at 10 µM reading, A or B ? Respond using the label that marks the chosen record.
A

###

target: Aβ40 (Homo sapiens); experiment: kinetic ThT assay for Aβ aggregation; format: biochemical; details: compound 20 μM; DMSO control at 80 hr = 0% inhibition; parenthesis = compound 1027; read-out: % inhib. A β 40 (20 μM)
readout name: inhibition at 20 µM (%)

[
  {
    "molecule": "OC(c1cc(N2Cc3ccccc3C2)c2nonc2c1)C(F)(F)F (centres unmarked)",
    "inhibition at 20 µM / %": 48
  },
  {
    "molecule": "COc1cc(CN(C)c2cc(-c3cccc(C(O)C(F)(F)F)c3)cc3nonc23)cc(OC)c1 (centres unmarked)",
    "inhibition at 20 µM / %": 53
  },
  {
    "molecule": "COc1ccc(CN(C)c2cc(-c3cccc(C(O)C(F)(F)F)c3)cc3nonc23)cc1 (centres unmarked)",
    "inhibition at 20 µM / %": 69
  },
  {
    "molecule": "CN(Cc1ccc(F)cc1)c1cc(-c2cccc(C(O)C(F)(F)F)c2)cc2nonc12 (centres unmarked)",
    "inhibition at 20 µM / %": 75
  },
  {
    "molecule": "CN(Cc1ccccn1)c1cc(-c2cccc(C(O)C(F)(F)F)c2)cc2nonc12 (centres unmarked)",
    "inhibition at 20 µM / %": 64
  }
]
